The following compounds are shown together with reported inhibition at 20 µM values.
targetUnderTest: recombinant PCSK9 (Homo sapiens, UniProt Q8NBP7)
Sequence (Q8NBP7 153-692): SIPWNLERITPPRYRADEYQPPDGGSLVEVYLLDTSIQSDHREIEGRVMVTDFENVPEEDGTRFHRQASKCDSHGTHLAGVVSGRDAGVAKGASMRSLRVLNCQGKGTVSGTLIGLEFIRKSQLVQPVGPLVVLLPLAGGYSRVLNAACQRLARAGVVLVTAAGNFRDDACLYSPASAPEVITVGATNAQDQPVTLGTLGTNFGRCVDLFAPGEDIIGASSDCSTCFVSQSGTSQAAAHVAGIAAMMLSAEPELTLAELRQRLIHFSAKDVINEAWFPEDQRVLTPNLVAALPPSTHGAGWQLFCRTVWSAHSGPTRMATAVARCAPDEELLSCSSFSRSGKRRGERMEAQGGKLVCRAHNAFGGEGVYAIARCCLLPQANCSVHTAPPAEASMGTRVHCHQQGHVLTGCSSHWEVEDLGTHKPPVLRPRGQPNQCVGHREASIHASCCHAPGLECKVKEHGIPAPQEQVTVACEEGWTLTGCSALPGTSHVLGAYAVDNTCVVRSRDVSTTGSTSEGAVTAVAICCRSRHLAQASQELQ
assaySummary: DiI-LDL Uptake Assay (% inhibition of recombinant PCSK9)
Type: cell-based
conditionDetails: compound dose 20 uM, 2.5 ug/mL recombinant PCSK9, HepG2 cells (FIG. 1), read-out: Uptake Assay: % Inhibition of 2.5 ug/mL recombinant PCSK9 @ X compound dose

Observe how each entry below is paired with its result.
compound | inhibition at 20 µM
O=S(=O)(Nc1ccccc1)c1ccc(C2CCNCC2)cc1 | > 100%
O=S(=O)(Nc1ccccc1)c1ccc(N2CCNCC2)cc1 | > 100%
c1cc(N2CCNCC2)ccc1OC1CCCCC1 | > 100%

Lab book: inhibition at 20 µM of O=S(=O)(c1ccccc1)c1ccc(N2CCNCC2)c(F)c1 noted as > 100%

Lab book: inhibition at 20 µM of O=C(Nc1ccccc1)c1ccc(N2CCNCC2)cc1 [Compound 11, N-phenyl-4-(piperazin-1-yl)benzamide] noted as ~49%
